Each recorded value in this set is attributed to BindingDB's records for doi:10.1016/j.bmc.2020.115716.

Each item that follows carries a reported pIC50.
assay: Inhibition of HCV genotype 1a NS5A infected in Huh7 cells assessed as reduction in viral replication incubated 3 days and measured by bright Glo-luciferase reporter gene assay
pIC50: −log10 of the molar value.
Measurement Kind: pIC50

INSERT INTO assay_data (smiles_str, measurement_kind, observed_result) VALUES
  ('COC(=O)N[C@H](C(=O)N1CCC[C@H]1c1ncc(C#CC#Cc2c(F)cc(-c3cnc([C@@H]4CCCN4C(=O)[C@@H](NC(=O)OC)C(C)C)[nH]3)cc2-c2ccccc2)[nH]1)C(C)C', 'pIC50', 10.19),
  ('COC(=O)N[C@H](C(=O)N1CCC[C@H]1c1ncc(-c2cc(C)c(C#CC#Cc3cnc([C@@H]4CCCN4C(=O)[C@H](NC(=O)OC)c4ccccc4)[nH]3)c(-c3ccccc3)c2)[nH]1)C(C)C', 'pIC50', 9.91),
  ('COC(=O)N[C@H](C(=O)N1CCC[C@H]1c1ncc(-c2ccc(C#CC#Cc3cnc([C@@H]4CCCN4C(=O)[C@H](NC(=O)OC)c4ccccc4)[nH]3)c(-c3ccc(N(C)C)cc3)c2)[nH]1)C(C)C', 'pIC50', 9.86),
  ('COC(=O)N[C@H](C(=O)N1CCC[C@H]1c1ncc(-c2cc(F)c(C#CC#Cc3cnc([C@@H]4CCCN4C(=O)[C@H](NC(=O)OC)c4ccccc4)[nH]3)c(-c3ccccc3)c2)[nH]1)C(C)C', 'pIC50', 10.29),
  ('COC(=O)N[C@H](C(=O)N1CCC[C@H]1c1ncc(C#CC#Cc2ccc(-c3cnc([C@@H]4CCCN4C(=O)[C@@H](NC(=O)OC)C(C)C)[nH]3)cc2-c2ccccc2)[nH]1)C(C)C', 'pIC50', 10.14),
  ('COC(=O)N[C@H](C(=O)N1CCC[C@H]1c1ncc(-c2ccc(C#CC#Cc3cnc([C@@H]4CCCN4C(=O)[C@H](NC(=O)OC)c4ccccc4)[nH]3)c(-c3ccccc3)c2)[nH]1)C(C)C', 'pIC50', 10.35),
  ('COC(=O)N[C@H](C(=O)N1CCC[C@H]1c1ncc(-c2ccc(C#CC#Cc3cnc([C@@H]4CCCN4C(=O)[C@H](NC(=O)OC)c4ccccc4)[nH]3)c(Sc3ccccc3)c2)[nH]1)C(C)C', 'pIC50', 9.59),
  ('COC(=O)N[C@H](C(=O)N1CCC[C@H]1c1ncc(-c2ccc(C#CC#Cc3cnc([C@@H]4CCCN4C(=O)[C@H](NC(=O)OC)c4ccccc4)[nH]3)c(-c3cccc(F)c3F)c2)[nH]1)C(C)C', 'pIC50', 10.55),
  ('COC(=O)N[C@H](C(=O)N1CCC[C@H]1c1ncc(C#CC#Cc2c(C)cc(-c3cnc([C@@H]4CCCN4C(=O)[C@@H](NC(=O)OC)C(C)C)[nH]3)cc2-c2ccccc2)[nH]1)C(C)C', 'pIC50', 10.43);
